Target: human Y5 receptor (Homo sapiens)
Assay: Y5 receptor binding inhibition test
Conditions: 2 h, read-out: % Inhibition ratio (10 μM)
Kind request: treat 90% as inclusive, so inhibition at 10 µM at 90% or higher is TRUE, anything lower is FALSE.

Some solved cases for reference:
compound: CCn1c2ccccc2c2cc(C(=O)NCCCCCNC(=O)c3ccc4[nH]nnc4c3)ccc21
assigned_category: FALSE

compound: CCn1c2ccccc2c2cc(C(=O)NC3CCC(CNS(=O)(=O)c4cccc5ccccc45)CC3)ccc21 (stereo not drawn)
assigned_category: FALSE

compound: CCn1c2ccccc2c2cc(C(=O)NCCCCCNC(=O)C34CC5CC(CC(C5)C3)C4)ccc21
assigned_category: FALSE

compound: CCn1c2ccccc2c2cc(NC(=O)COC)ccc21
assigned_category: TRUE

compound: CCn1c2c(c3cc(C(=O)NCCOCCSc4ncn[nH]4)ccc31)CCCC2
assigned_category: FALSE

compound: CCn1c2ccccc2c2cc(C(=O)NCCCCCNS(=O)(=O)c3ccc4ccccc4c3)ccc21
assigned_category: TRUE

IN: Dear colleague, could you confirm whether CC(C)n1c2c(c3cc(NC(=O)CCCCCNS(=O)(=O)c4cccc5ccccc45)ccc31)CCCC2 has inhibition at 10 µM at or above 90%?
OUT: TRUE

IN: inhibition at 10 µM >= 90% for CCn1c2ccccc2c2cc(C(=O)NCCCCCNS(=O)(=O)c3cccc4cccnc34)ccc21 ?
OUT: TRUE

====

Biological target: human Y5 receptor (Homo sapiens)
Experiment: Y5 receptor binding inhibition test
Conditions: 2 h, read-out: % Inhibition ratio (10 μM)
inhibition at 10 µM: recorded values
Just the number in %, nothing appended.

chem_smiles: CCn1c2ccccc2c2cc(C(=O)NCCCCCNS(=O)(=O)c3cccc4ccccc34)c(O)cc21
system_name: human Y5 receptor (Homo sapiens)
unit_symbol: %
numeric_readout: 74
--
chem_smiles: CCn1c2c(c3cc(C(=O)NCCCCCNS(=O)(=O)c4cccc5ccccc45)ccc31)CCCC2
system_name: human Y5 receptor (Homo sapiens)
unit_symbol: %
numeric_readout: 87
--
chem_smiles: CCCCCCCCS(=O)(=O)NCCCCCNC(=O)c1ccc2c(c1)c1ccccc1n2CC
system_name: human Y5 receptor (Homo sapiens)
unit_symbol: %
numeric_readout: 77
--
chem_smiles: CCn1c2ccccc2c2cc(C(=O)NCCCCCNS(=O)(=O)c3cccc4ccccc34)ccc21
system_name: human Y5 receptor (Homo sapiens)
unit_symbol: %
numeric_readout: 97
--
chem_smiles: CC(C)n1c2c(c3cc(NC(=O)N(C)CCc4ccncc4)c(F)cc31)CCCC2
system_name: human Y5 receptor (Homo sapiens)
unit_symbol: %
numeric_readout: 100
--
chem_smiles: CCn1c2ccccc2c2cc(C(=O)NCCCCCNC(=O)C3CCCCC3)ccc21
system_name: human Y5 receptor (Homo sapiens)
unit_symbol: %
numeric_readout: 84
--
chem_smiles: CCn1c2c(c3cc(C(=O)NCCOCCNS(=O)(=O)C(C)C)ccc31)CCCC2
system_name: human Y5 receptor (Homo sapiens)
unit_symbol: %
numeric_readout: 88

Next:
IN: # get_value(readout='inhibition at 10 µM', item= CCn1c2ccccc2c2cc(C(=O)NCCCCCNS(=O)(=O)C(C)C)ccc21 )
OUT: 109

====

Each entry below carries its reported inhibition at 10 µM.
Molecular target: human Y5 receptor (Homo sapiens, UniProt Q15761)
Sequence (Q15761 whole entry): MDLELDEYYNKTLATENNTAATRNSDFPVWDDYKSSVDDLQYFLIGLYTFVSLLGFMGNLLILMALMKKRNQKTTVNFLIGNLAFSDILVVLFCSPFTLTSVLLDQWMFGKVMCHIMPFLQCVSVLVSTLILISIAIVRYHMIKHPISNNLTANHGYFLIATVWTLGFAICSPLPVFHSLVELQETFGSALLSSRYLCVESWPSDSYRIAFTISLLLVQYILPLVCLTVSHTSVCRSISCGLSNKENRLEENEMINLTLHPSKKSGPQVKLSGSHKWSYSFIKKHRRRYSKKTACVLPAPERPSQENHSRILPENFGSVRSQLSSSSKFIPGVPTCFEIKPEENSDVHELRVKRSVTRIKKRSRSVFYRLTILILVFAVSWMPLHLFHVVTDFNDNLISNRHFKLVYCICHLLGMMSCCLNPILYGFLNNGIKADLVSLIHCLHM
Experiment: Y5 receptor binding inhibition test
Details: 2 h, read-out: % Inhibition ratio (10 μM)

compound: CCn1c2ccccc2c2cc(C(=O)NCCCCCNC(=O)c3cccc4ccccc34)ccc21 [Compound 1-22]
inhibition at 10 µM: 89%

compound: CCn1c2c(c3cc(NC(C)=O)ccc31)CCCCC2 [Compound 3-2]
inhibition at 10 µM: 94%

IN: Which inhibition at 10 µM reading was recorded for the compound CCn1c2ccccc2c2cc(C(=O)NCCSCCNS(=O)(=O)c3cccc4ccccc34)ccc21 [Compound 1-27] ?
OUT: 96%

IN: Using the record for CCn1c2ccccc2c2cc(C(=O)NCCNCCNS(=O)(=O)c3cccc4ccccc34)ccc21 [Compound 1-29] , report its inhibition at 10 µM.
OUT: 89%

====

Measured inhibition at 10 µM accompanies every entry in the list below.
Molecular target: human Y5 receptor (Homo sapiens)
Assay: Y5 receptor binding inhibition test
Settings: 2 h, read-out: % Inhibition ratio (10 μM)
Give just the numeric value; % need not be written.

compound: CCn1c2ccccc2c2cc(C(=O)NCCCCCNS(=O)(=O)c3cccc4c(N(C)C)cccc34)ccc21 [Compound 1-17]
inhibition at 10 µM [%]: 93

IN: Can you look up inhibition at 10 µM on human Y5 receptor (Homo sapiens) for CCn1c2ccccc2c2cc(NC(=O)CCCNS(=O)(=O)c3cccc4ccccc34)ccc21 [Compound 1-5] ?
OUT: 98

IN: What inhibition at 10 µM appears in the records for this compound with human Y5 receptor (Homo sapiens)? CC(=O)n1c2ccccc2c2cc(C(=O)NCCCCCNS(=O)(=O)c3cccc4ccccc34)ccc21 [Compound 1-54]
OUT: 88

====

Biological target: human Y5 receptor (Homo sapiens)
Assay: Y5 receptor binding inhibition test
Settings: test compound 10 μM; 3H-NPY; membrane of insect cells expressing human Y5 receptor; 4° C., 2 hours; relative to Y5 specific binding in solvent group
measure_name: % Inhibition ratio (10 μM)
I'd appreciate it if you wrote the number followed by its unit.

Recorded results for 6 compounds are shown here.
compound: CCn1c2c(c3cc(NC(=O)N4CCOCC4)ccc31)CCCC2 [Compound 8-2]
result: 95%
//
compound: CC(C)n1c2c(c3cc(NC(=O)N(C)CC4CCCO4)ccc31)CCCC2 (stereo not drawn) [Compound 5-13]
result: 98%
//
compound: CC(C)n1c2c(c3cc(NC(=O)N(C)CCN4CCOCC4)ccc31)CCCC2 [Compound 5-16]
result: 86%
//
compound: CC(C)n1c2c(c3cc(NC(=O)N4C[C@@H](C)O[C@@H](C)C4)ccc31)CCCC2 [Compound 7-16]
result: 96%
//
compound: CC(C)n1c2c(c3cc(NC(=O)N4CCC(CCO)CC4)ccc31)CCCC2 [Compound 7-12]
result: 94%
//
compound: CC(C)n1c2c(c3cc(NC(=O)N(C)CCN4CCCCC4)ccc31)CCCC2 [Compound 5-14]
result: 95%

IN: Item: CC(C)n1c2c(c3cc(NC(=O)N(C)CC(O)CO)ccc31)CCCC2 (stereo not drawn) [Compound 5-26] Test system: human Y5 receptor (Homo sapiens) Read-out: % Inhibition ratio (10 μM) Value: ?
OUT: 108%

IN: Query % Inhibition ratio (10 μM) on human Y5 receptor (Homo sapiens) for CC(C)n1c2c(c3cc(NC(=O)N(C)CCc4cccnc4)ccc31)CCCC2 [Compound 5-19]
OUT: 100%

IN: Request - read-out % Inhibition ratio (10 μM) | tested on human Y5 receptor (Homo sapiens) | compound CC(C)n1c2c(c3cc(NC(=O)N(C)CCOCCO)ccc31)CCCC2 [Compound 5-10]
OUT: 104%

====

Biological target: human Y5 receptor (Homo sapiens, UniProt Q15761)
Assay: Y5 receptor binding inhibition test
Settings: test compound 10 μM; 3H-NPY; membrane of insect cells expressing human Y5 receptor; 4° C., 2 hours; relative to Y5 specific binding in solvent group
measure_name: % Inhibition ratio (10 μM) (%)
Give a bare numeral; the unit % is implied.

Solved cases below.
compound: CC(C)n1c2c(c3cc(NC(=O)N(C)CCc4ccccn4)ccc31)CCCC2 [Compound 5-18]
unit_symbol: %
% Inhibition ratio (10 μM): 100

compound: CC(C)n1c2c(c3cc(NC(=O)N(C)CCCn4ccnc4)ccc31)CCCC2 [Compound 5-22]
unit_symbol: %
% Inhibition ratio (10 μM): 100

compound: CC(C)n1c2c(c3cc(NC(=O)N4CCN(c5ncccn5)CC4)ccc31)CCCC2 [Compound 7-21]
unit_symbol: %
% Inhibition ratio (10 μM): 80

compound: CC(C)n1c2c(c3cc(NC(=O)N(C)CCc4ccncc4)ccc31)CCCC2 [Compound 5-20]
unit_symbol: %
% Inhibition ratio (10 μM): 103

IN: Report % Inhibition ratio (10 μM) for CC(C)n1c2c(c3cc(NC(=O)N4CCNCC4)ccc31)CCCC2 [Compound 7-18] please.
OUT: 92

====

// reported inhibition at 10 µM for each item listed
Molecular target: human Y5 receptor (Homo sapiens, UniProt Q15761)
Test: Y5 receptor binding inhibition test
Conditions: 2 h, read-out: % Inhibition ratio (10 μM)
Give the quantity in %, number only.

molecule: CCn1c2ccccc2c2cc(C(=O)NCCCCCNS(=O)(=O)c3ccccc3)ccc21 [Compound 1-15]
inhibition at 10 µM / %: 111
//
molecule: CCn1c2ccccc2c2cc(C(=O)NCCCCCNC(=O)c3cccnc3)ccc21 [Compound 1-23]
inhibition at 10 µM / %: 77
//
molecule: COCCn1c2c(c3cc(C(=O)NCCOCCNS(=O)(=O)c4cccnc4)ccc31)CCCC2 [Compound 1-58]
inhibition at 10 µM / %: 66

IN: What inhibition at 10 µM value was documented for this molecule, CCn1c2ccccc2c2cc(NC(=O)CCCCCNC(=O)c3cccnc3)ccc21 [Compound 1-8] ?
OUT: 100

IN: I'd like to know its inhibition at 10 µM. The molecule in question is CCCCn1c2ccccc2c2cc(C(=O)NCCCCCNS(=O)(=O)c3cccc4ccccc34)ccc21 [Compound 1-48]
OUT: 96

IN: Any idea what inhibition at 10 µM was measured for Cn1c2ccccc2c2cc(C(=O)NCCCCCNS(=O)(=O)c3cccc4ccccc34)ccc21 [Compound 1-46] ?
OUT: 102
